experiment: PK / tissue distribution in Sprague-Dawley rats; format: in vivo; conditions: female, rat, PO, 5 mg/kg, liver, read-out: Cmax in Liver
Please note: Cmax exactly at 30 ng/g is 0 (no). Only values below 30 ng/g get 1 (yes).

compound	categoryLabel
C=C[C@@]1(F)[C@H](O)[C@@H](COP(=O)(S)OP(=O)(O)OC2OC([C@H](COC(C)=O)OC(C)=O)C(OC(C)=O)C(OC(C)=O)C2OC(C)=O)O[C@H]1n1cnc2c(N)ncnc21 (stereo partly drawn) [Example 41C]	1 (yes)
C=C[C@@]1(F)[C@H](O)[C@@H](COP(=O)(S)OP(=O)(O)OC2OC([C@H](COC(C)=O)OC(C)=O)C(OC(C)=O)C(OC(C)=O)C2OC(C)=O)O[C@H]1n1ccc(=O)[nH]c1=O (stereo partly drawn) [Example 42C]	0 (no)
CC(=O)OC[C@H](OC(C)=O)C1OC(OP(=O)(O)OP(=O)(S)OC[C@H]2O[C@@H](n3cnc4c(N)ncnc43)[C@H](N(C)C)[C@@H]2O)C(OC(C)=O)C(OC(C)=O)C1OC(C)=O (stereo partly drawn) [Example 35C]	0 (no)
C=C[C@@]1(O)[C@H](O)[C@@H](COP(=O)(S)OP(=O)(O)OC2OC([C@H](COC(C)=O)OC(C)=O)C(OC(C)=O)C(OC(C)=O)C2OC(C)=O)O[C@H]1c1cnc2c(N)ncnn12 (stereo partly drawn) [Example 127C]	0 (no)
C=C[C@@]1(O)[C@H](O)[C@@H](COP(=O)(S)OP(=O)(O)OC2OC([C@H](COC(C)=O)OC(C)=O)C(OC(C)=O)C(OC(C)=O)C2OC(C)=O)O[C@H]1n1ccc(=O)[nH]c1=O (stereo partly drawn) [Example 43C]	1 (yes)
